run.description: viability profiling in RPMI8226 myeloma cells – cell-based, resazurin fluorescence, basal, 24 h, PK04 Diversity Set, profiling panel (AID 1180);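 note: RPMI8826 multiple myeloma cell line at 5000 cells per well; test concentration not given here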
assay.setup: higher = more signal
Recorded z-score, one value per entry.

| compound | z-score |
| --- | --- |
| CCOC(=O)C[C@H]1[C@H](OC(=O)c2cc3ccccc3oc2=O)[C@@H](NC(=O)c2ccccc2)c2cc(OCCCO)ccc2N1C(=O)c1ccccc1 | -0.171 |
| C=CCC(OC(C)=O)[C@@H]1[C@@H](N(Cc2cccc3ccccc23)C(=O)Cc2ccc(F)cc2)c2cc(OCCCO)ccc2N1C(=O)c1ccc2ccccc2c1 (stereo not given in full) | 0.276 |
| COCCOC(=O)N1C(=O)[C@@]2(c3cc(C#CC4(O)CCCCCC4)ccc31)[C@H](C(=O)Nc1nc3ccccc3s1)[C@H]1C(=O)O[C@H](c3ccccc3)[C@H](c3ccccc3)N1[C@@H]2c1ccc(O)cc1 | -0.945 |
| CC1CC/C=C\[C@H]2OC34C=CCN(c5ccc(Cl)cc5)C(=O)[C@H]3N(C(C)CO)C(=O)[C@]4(C)C2C(=O)O1 (stereo not given in full) | 0.555 |
| COCC(=C=CC[C@H](O)c1ccc(CO)o1)CCO | 0.036 |
| COc1ccc(C(=O)Nc2ccc(CN3C(=O)[C@]4(O[C@H](CC(=O)N5Cc6ccccc6C[C@H]5CO)[C@@H]([Si](C)(C)c5ccc(OC)cc5)[C@@H]4C)c4ccccc43)cc2)cc1 | -0.839 |
| COC(=O)[C@@H]1N=C(c2ccc(OCCCO)cc2)O[C@@H]1c1ccccc1 | 1.5 |
| CCCCC(O)C1C=CC2C(=O)N(C)C(=O)C2N1N(c1ccccc1)c1ccccc1 (stereo not given) | -1.05 |
| CCCCN1CC=CC23O[C@@H]4/C=C\CCCOC(=O)C4[C@H]2C(=O)N(CCO)[C@@H]3C1=O (stereo not given in full) | 0.0725 |
| CC1CC/C=C\[C@H]2OC34C=CCN(C(C)(C)C)C(=O)[C@H]3N(CCCCCO)C(=O)[C@@H]4C2C(=O)O1 (stereo not given in full) | 0.0992 |
| CO[C@H]1O[C@H](CO)[C@@H](OC(=O)CCc2ccccc2)[C@@H]2OC(=O)[C@@H](Cc3ccccc3)C/C=C/C[C@H](Cc3ccccc3)C(=O)O[C@@H]12 | 0.943 |
| C=C(COC)C(=O)CC[C@@H](OC(C)=O)c1cccc(OCCO)c1 | -0.929 |
| CS(=O)(=O)CCOC(=O)C1=CC(c2ccc(CO)cc2)=CC(C2CC2)N(Cc2sc3ccccc3c2Cl)C=C1C(=O)OCCS(C)(=O)=O (stereo not given) | -1.85 |
| C=CCN1C(=O)[C@]2(CCS(=O)(=O)c3ccccc3)N=C(c3ccc(OCCCO)cc3)O[C@@H]2c2ccccc21 | -1.96 |
| COc1ccc([Si](C)(C)[C@@H]2[C@@H](CCO)O[C@]3(C(=O)N(Cc4ccccc4)c4ccc(N5CCOC5=O)cc43)[C@H]2C)cc1 | -2.79 |
| CCN(CC)c1ccc(N2CC=CC34O[C@@H]5/C=C\CCCOC(=O)C5[C@H]3C(=O)N(C(C)CO)[C@@H]4C2=O)cc1 (stereo not given in full) | 0.778 |
| COc1ccc([Si](C)(C)[C@@H]2[C@@H](CC(=O)N3CCC[C@H]3CO)O[C@]3(C(=O)N(Cc4cccc(N5C(=O)COc6ccccc65)c4)c4ccccc43)[C@H]2C)cc1 | -5.39 |
| CC(CO)N1C(=O)[C@@H]2[C@H]3C(=O)OCC=C[C@H]3OC23C=CCN(Cn2nnc4ccccc42)C(=O)[C@@H]13 (stereo not given in full) | -0.35 |
| Cc1ccc(S[C@]2(C(=O)NCc3ccccc3)CC(=O)N(C3CCCCC3)[C@@H]2c2ccc(CO)cc2I)cc1 | -2.24 |
| CC(C)[Si](C#C[Si](C(C)C)(C(C)C)C(C)C)(O[C@H](c1ccccc1)c1cn(Cc2ccccc2)nn1)C(C)C | 1.43 |
| CC(C)=C1C(=O)C(c2ccccc2)=C2CN3C(=O)N(CCc4ccccc4)C(=O)[C@]3(Cc3ccc(C(F)(F)F)cc3)[C@H]21 | -1.19 |
| COCCCNC(=O)[C@@H]1c2ccccc2C(=O)N(C(C)C)[C@H]1c1ccc(CO)cc1 | -0.0303 |
| CC(C)C[C@@H]1NC(=O)[C@@H]2C[C@H](C(=O)NCCCCCCN)[C@H](c3cccc(OCCO)c3)N2C1=O | -0.0399 |
| CCC#CCN(Cc1ccccc1Br)[C@H](/C=C/C1CC1)[C@@H](O)Cc1ccccc1 | 0.329 |
| CC(C)[Si]1(C(C)C)OCc2cc(-c3ccc(-c4ccc(Cl)c(Cl)c4)o3)nc(-c3ccccc3)c21 | 0.311 |
